These measurements were taken from patent US9375004B2.

# ASSAY PROTOCOL: logP by HPLC on reversed-phase column (EEC Directive 79/831 Annex V.A8)
# TEST PARAMETERS: reversed-phase HPLC column (C 18)
VALUE KIND: chromatographic logP
Reply with just the number.

IN: So what does the record say about chromatographic logP for Nc1ccc(F)cc1-c1ccc(C(F)(F)F)cc1 ?
OUT: 3.52

----------
# ASSAY PROTOCOL: logP by HPLC on reversed-phase column (EEC Directive 79/831 Annex V.A8)
# TEST PARAMETERS: HPLC on reversed-phase column (C 18), EEC Directive 79/831 Annex V.A8
VALUE KIND: logP
Could you respond with only the numeric value?

IN: // logP lookup, key: Cn1nc(C(F)F)c(C(=O)Nc2cccc(Cl)c2SCC(F)F)c1F [compound 33]
OUT: 3.53

IN: For the compound Cn1nc(C(F)F)c(C(=O)Nc2ccccc2-c2ccc(C(F)(F)F)c(F)c2)c1Cl [Example 148] , what logP is on record?
OUT: 3.77

IN: Can you look up the measured logP of CC(C)OCc1cccc(NC(=O)c2c(C(F)F)nn(C)c2F)c1 [Example 166] for me?
OUT: 2.72

IN: Recorded logP for Cc1ccc(CCC(C)(C)C)c(NC(=O)c2c(C(F)F)nn(C)c2F)c1 [compound 17] , please?
OUT: 4.29

IN: Fill blank: measured logP of the compound Cn1nc(C(F)F)c(C(=O)Nc2ccccc2-c2ccc([Si](C)(C)C)cc2)c1Cl [compound 136] is ____.
OUT: 5.39

IN: Request the reported logP associated with Cn1nc(C(F)F)c(C(=O)Nc2cccc(-c3ccc(Cl)cc3Cl)c2)c1F [compound 229]
OUT: 4.21

IN: Which logP value belongs to Cn1nc(C(F)F)c(C(=O)Nc2ccccc2-c2cccc([Si](C)(C)C)c2)c1F [compound 133] ?
OUT: 4.83

IN: What logP value was documented for this compound, Cn1nc(C(F)F)c(C(=O)Nc2ccccc2C2CC2)c1F [compound 45] ?
OUT: 2.96

IN: Entry Cn1nc(C(F)F)c(C(=O)Nc2cccc(-c3cc(Cl)cc(Cl)c3)c2)c1Cl [compound 232] : reported logP = ?
OUT: 4.73

IN: Can you look up the measured logP of Cn1nc(C(F)F)c(C(=O)Nc2cccc(-c3cccc([Si](C)(C)C)c3)c2)c1F [compound 237] for me?
OUT: 4.96

IN: Please give the measured logP for this compound: Cn1nc(C(F)F)c(C(=O)Nc2cccc(OC(F)(F)C(F)F)c2)c1Cl [Example 188]
OUT: 3.09

IN: So what's the measured logP for this one? CC(C)Oc1cccc(NC(=O)c2c(C(F)F)nn(C)c2Cl)c1 [Example 169]
OUT: 2.98

IN: Look at this compound and give its reported logP. Cn1nc(C(F)F)c(C(=O)Nc2ccccc2C2CC2C2CC2)c1Cl (single isomer, unassigned) [Example 48]
OUT: 3.85

IN: Look up logP for this compound: Cn1nc(C(F)F)c(C(=O)Nc2ccccc2-c2cc(Cl)cc(Cl)c2)c1Cl [compound 128]
OUT: 4.31

IN: So what does the record say about logP for Cn1nc(C(F)F)c(C(=O)Nc2cc(F)ccc2SCC(F)F)c1F [compound 34] ?
OUT: 3.33

IN: Which logP is listed for CO/N=C(\C)c1ccc(-c2cccc(NC(=O)c3c(C(F)F)nn(C)c3Cl)c2)cc1 [compound 234] ?
OUT: 4.11

IN: Sample Cn1nc(C(F)F)c(C(=O)Nc2cccc(-c3ccc(C(F)(F)F)cc3)c2)c1F [compound 225] — what was its logP?
OUT: 3.99

----------
Please go through the items and note down their Efficacy.
# System: Alternaria solani
# ASSAY PROTOCOL: Alternaria test (tomato)/preventive
# Assay type: in vivo
# TEST PARAMETERS: 500 ppm, preventive, evaluated 7 days after inoculation
# output: bare number, implied unit %

IN: Can you look up the measured Efficacy of Cn1nc(C(F)F)c(C(=O)Nc2ccccc2-c2ccc(Cl)c(Cl)c2)c1Cl [Example 126] for me?
OUT: 89

IN: Efficacy for Cn1nc(C(F)F)c(C(=O)Nc2ccccc2-c2ccc(-c3ccccc3)cc2)c1F [Example 137] ?
OUT: 95

IN: Param item = Cn1nc(C(F)F)c(C(=O)Nc2ccccc2-c2ccc(F)c(F)c2)c1F [Example 90] ; retrieve measured Efficacy.
OUT: 90

IN: Look up Efficacy for this compound: CC(C)CC(C)c1ccccc1NC(=O)c1c(C(F)F)nn(C)c1F (stereo not drawn) [Example 11]
OUT: 100

IN: // query Efficacy value for entry Cn1nc(C(F)F)c(C(=O)Nc2ccccc2CCC(C)(C)C)c1F [Example 13]
OUT: 100

IN: Dear colleague, I am looking for the recorded Efficacy of the following compound: Cn1nc(C(F)F)c(C(=O)Nc2ccccc2-c2ccc(F)cc2)c1F [Example 80]
OUT: 95

IN: Record request: Efficacy value, item Cn1nc(C(F)F)c(C(=O)Nc2ccccc2C2CC3CCC2C3)c1F (stereo not drawn) [Example 51]
OUT: 95

IN: If you can, please state the reported Efficacy value of Cn1nc(C(F)F)c(C(=O)Nc2ccc(F)cc2-c2ccc(C(F)(F)F)c(F)c2)c1F [Example 150] .
OUT: 89

IN: Can you share its Efficacy? I mean this compound: Cn1nc(C(F)F)c(C(=S)Nc2ccccc2-c2ccc(C(F)(F)F)c(F)c2)c1Cl [Example 151]
OUT: 95

----------
# ASSAY PROTOCOL: logP by HPLC on reversed-phase column (EEC Directive 79/831 Annex V.A8)
# TEST PARAMETERS: HPLC on reversed-phase column (C 18), EEC Directive 79/831 Annex V.A8
VALUE KIND: logP
// keep it numeric: no unit symbol after the value

IN: Consider the compound Cn1nc(C(F)F)c(C(=O)Nc2ccccc2-c2ccc(Cl)cc2Cl)c1F [compound 123] and give its measured logP.
OUT: 3.89

IN: Query: logP; subject: Cn1nc(C(F)F)c(C(=O)Nc2ccccc2-c2ccc(Br)cc2)c1F [Example 139]
OUT: 3.56

IN: Looking for the measured logP of Cn1nc(C(F)F)c(C(=O)Nc2cccc(Br)c2)c1F [compound 189] , can you help?
OUT: 2.82

IN: Fill in: logP of CCCCCc1ccccc1NC(=O)c1c(C(F)F)nn(C)c1Cl [Example 12] is ___
OUT: 4.01

IN: I would be grateful if you could share the reported logP for CCCOc1cccc(NC(=O)c2c(C(F)F)nn(C)c2F)c1 [compound 175] .
OUT: 3.04

IN: Which logP is listed for Cn1nc(C(F)F)c(C(=S)Nc2ccccc2-c2ccc(Br)cc2)c1Cl [Example 141] ?
OUT: 3.96

IN: Param item = Cn1nc(C(F)F)c(C(=O)Nc2ccc(F)cc2-c2ccc(Cl)c(Cl)c2)c1F [Example 116] ; retrieve measured logP.
OUT: 3.89

IN: What does the record list as logP for Cn1nc(C(F)F)c(C(=O)Nc2cccc3c2OC(F)(F)O3)c1Cl [compound 63] ?
OUT: 3.00

IN: Reported logP, compound COC(C)(C)C#Cc1ccccc1NC(=O)c1c(C(F)F)nn(C)c1F [Example 19] : ____
OUT: 3.34

----------
# Tested on: Uromyces appendiculatus
# TEST PARAMETERS: 100 ppm, beans, preventive, evaluated 10 days after inoculation
VALUE KIND: Efficacy (%)
# value in %; strip the unit string

IN: # lookup: Efficacy of CC(C)C1C2CCC1c1c(NC(=O)c3c(C(F)F)nn(C)c3F)cccc12 (centres unmarked)
OUT: 100

IN: Name the recorded Efficacy for COC(C)(C)CCc1ccccc1NC(=O)c1c(C(F)F)nn(C)c1F .
OUT: 90

IN: I'd like to know its Efficacy. The compound in question is Cn1nc(C(F)F)c(C(=O)Nc2ccccc2-c2ccc(Br)cc2)c1F
OUT: 100

IN: For Cn1nc(C(F)F)c(C(=O)Nc2ccc(F)cc2-c2ccc(C(F)(F)F)c(F)c2)c1F , what is its reported Efficacy?
OUT: 98

IN: What value of Efficacy has been recorded for this entry: Cn1nc(C(F)F)c(C(=O)Nc2ccccc2CC[Si](C)(C)C)c1Cl
OUT: 100

IN: Query (compound): Cn1nc(C(F)F)c(C(=O)Nc2cccc(OC(F)(F)C(F)F)c2)c1Cl ; field requested: Efficacy
OUT: 100

IN: Returns the measured Efficacy for the input compound. Input: CC(CC(C)(C)C)c1ccccc1NC(=O)c1c(C(F)F)nn(C)c1F (centres unmarked)
OUT: 100

IN: Record request: Efficacy value, item Cn1nc(C(F)F)c(C(=O)Nc2ccccc2-c2ccc(Cl)cc2)c1Cl
OUT: 100

IN: Param item = Cn1nc(C(F)F)c(C(=O)Nc2cccc3c2C2CCC3C2=C(Cl)Cl)c1Cl (centres unmarked) ; retrieve measured Efficacy.
OUT: 100

IN: Give the measured Efficacy of Cn1nc(C(F)F)c(C(=O)Nc2ccccc2C2CC2C2CC2)c1Cl (single isomer, unassigned) [Example 47] .
OUT: 100

IN: Find the recorded Efficacy belonging to Cn1nc(C(F)F)c(C(=O)Nc2ccc(F)cc2-c2ccc(Cl)cc2)c1F and report it.
OUT: 99

IN: Field request: Efficacy | item: Cn1nc(C(F)F)c(C(=O)Nc2ccccc2CCC(C)(C)C)c1Cl
OUT: 100

IN: For the compound shown here, CCCC(C)c1ccccc1NC(=O)c1c(C(F)F)nn(C)c1Cl (centres unmarked) , give the reported Efficacy.
OUT: 100

IN: Bench note: what Efficacy did Cn1nc(C(F)F)c(C(=O)Nc2ccccc2-c2cc(F)c(F)cc2F)c1Cl show?
OUT: 100

IN: Need Efficacy of CCCC(C)c1ccccc1NC(=O)c1c(C(F)F)nn(C)c1F (centres unmarked) , thanks.
OUT: 100

IN: State the recorded Efficacy for this entry: Cn1nc(C(F)F)c(C(=O)Nc2cccc(Oc3cccc(C(F)(F)F)c3)c2)c1Cl
OUT: 73

IN: I would be grateful if you could share the reported Efficacy for Cn1nc(C(F)F)c(C(=O)Nc2ccccc2-c2ccc(-c3ccccc3)cc2)c1F .
OUT: 99

IN: Fill in: Efficacy of CC1CC(C)(C)c2cccc(NC(=O)c3c(C(F)F)nn(C)c3Cl)c21 (centres unmarked) is ___
OUT: 100

IN: Sample Cn1nc(C(F)F)c(C(=O)Nc2cccc3c2C2CCC3C2=C(Cl)Cl)c1F (centres unmarked) — what was its Efficacy?
OUT: 100

IN: Please look up its Efficacy: Cn1nc(C(F)F)c(C(=O)Nc2ccccc2-c2ccc(F)c(F)c2)c1Cl
OUT: 100

IN: For the compound shown here, Cn1nc(C(F)F)c(C(=O)Nc2ccccc2-c2ccc(Cl)c(Cl)c2)c1F , give the reported Efficacy.
OUT: 100

IN: Dear colleague, I am looking for the recorded Efficacy of the following compound: Cn1nc(C(F)F)c(C(=O)Nc2ccccc2-c2ccc(Br)cc2Cl)c1F
OUT: 100

IN: Fill blank: measured Efficacy of the compound CC1CC(C)(C)c2cccc(NC(=O)c3c(C(F)F)nn(C)c3F)c21 (racemic) is ____.
OUT: 100

IN: Form field: reported Efficacy of Cn1nc(C(F)F)c(C(=O)Nc2ccccc2CCC(C)(C)C)c1F
OUT: 100

IN: Entry under review: Cn1nc(C(F)F)c(C(=O)Nc2ccc(F)cc2-c2ccc(C(F)(F)F)cc2)c1F . Reported Efficacy?
OUT: 95

IN: Form field: reported Efficacy of Cn1nc(C(F)F)c(C(=O)Nc2ccccc2-c2ccc(C(F)(F)F)c(F)c2)c1F
OUT: 100

IN: Using the record for Cn1nc(C(F)F)c(C(=O)Nc2ccccc2-c2ccc(C(F)(F)F)c(F)c2)c1Cl , report its Efficacy.
OUT: 100

IN: # lookup: Efficacy of Cn1nc(C(F)F)c(C(=O)Nc2ccc(F)cc2-c2ccc(Cl)c(F)c2)c1Cl
OUT: 100

IN: Any idea what its Efficacy is? The compound is CC1CCCC(c2ccccc2NC(=O)c2c(C(F)F)nn(C)c2Cl)C1 (centres unmarked)
OUT: 100

IN: Looking for the measured Efficacy of Cn1nc(C(F)F)c(C(=O)Nc2cccc(OC(F)(F)F)c2)c1Cl , can you help?
OUT: 100

IN: What does the data say about its Efficacy? Entry: Cn1nc(C(F)F)c(C(=O)Nc2ccccc2-c2ccc(Cl)cc2)c1F
OUT: 100

IN: Consider the compound shown here: CC(C)C1C2CCC1c1c(NC(=O)c3c(C(F)F)nn(C)c3Cl)cccc12 (centres unmarked) What is its recorded Efficacy?
OUT: 100

IN: Look up Efficacy: Cn1nc(C(F)F)c(C(=O)Nc2ccccc2-c2ccc(Cl)c(F)c2)c1F
OUT: 99

IN: Looking for the measured Efficacy of Cn1nc(C(F)F)c(C(=O)Nc2ccc(F)cc2OCC(C)(C)C)c1F , can you help?
OUT: 94

IN: # Efficacy lookup, item Cn1nc(C(F)F)c(C(=O)Nc2ccccc2-c2ccc(Br)cc2)c1Cl
OUT: 100
